- measurement_description: qHTS assay to identify small molecule HDAC inhibitors - cell viability counter screen (AID 1259365); note: nearly all actives have a fitted effect of over 50% in size
- settings: HCT-116 viability, CellTiter-Glo ATP luminescence, 2 h; series mostly up to 92.4 µM
Calls of active or inactive are those of the source. Calls come from the whole dose curve; as a rule, active = well fitted cell-killing curve with a large enough effect in the repeat runs; inconclusive = weak or mixed curves, or effect the other way; inactive = flat fitted curve, though single readings scatter.
# output must be one of class 1 for active, class 0 for inactive

{"compound": "CC(=O)Nc1ccc(C)cc1C", "discrete_label": "class 0"}
{"compound": "CC1CC(C)C(=O)C1=O (centres undefined)", "discrete_label": "class 0"}
{"compound": "CC(C)(O)c1ccc(CNC(=O)c2cccnc2Oc2ccc3nonc3c2)cc1", "discrete_label": "class 0"}
{"compound": "O=C1NCCN1CCO", "discrete_label": "class 0"}
{"compound": "CC(=O)OCC(=O)NCCCOc1cccc(CN2CCCCC2)c1", "discrete_label": "class 0"}
{"compound": "CCCCCCCCOc1ccc(C(=O)O)cc1", "discrete_label": "class 0"}

What was the test verdict on "Cc1ccc(C(C)(C)O)cc1" ?
class 0

What was the test verdict on "CCCCCCCC/C=C\CCCCCCCCCCCC(=O)O" ?
class 0

What was the test verdict on "CCCCCCCC/C=C\CCCCCCCCO" ?
class 0

What was the test verdict on "N#CCc1ccc(Cl)cc1Cl" ?
class 0

What was the test verdict on CCC1NC(=O)c2cc(S(N)(=O)=O)c(Cl)cc2N1 (centres undefined) ?
class 0

What was the test verdict on "O=C(/C=C/c1ccccc1)OCCc1ccccc1" ?
class 0

What was the test verdict on "Oc1cc2c(cc1O)[C@H]1c3ccc(O)c(O)c3OC[C@@]1(O)C2" ?
class 0

What was the test verdict on "O=c1cc(-c2ccccc2)oc2ccc3ccccc3c12" ?
class 1

* * *

- measurement_description: qHTS assay to identify small molecule agonists of the sonic hedgehog signaling (Shh) pathway - cell viability counter screen (AID 1259366); note: nearly all actives have a fitted effect of over 50% in size
- settings: NIH/3T3 Gli1-Luc viability, CellTiter-Fluor, 24 h; series mostly up to 92.4 µM
Records with an inconclusive call do not appear. Activity calls are given as the source filed them. Calls follow the shape of the dose curve; as a rule, active = well fitted cell-killing curve with a large enough effect in the repeat runs; inconclusive = weak or mixed curves, or effect the other way; inactive = flat fitted curve, though single readings scatter.
# output must be one of active, inactive

Please review the entries below; each comes with its answer.
{"molecule": "O=Cc1c2ccccc2c(Cl)c2ccccc12", "discrete_label": "inactive"}
{"molecule": "C=C(C)[C@@H]1CCC2=CCC[C@@H](C)[C@]2(C)C1", "discrete_label": "inactive"}
{"molecule": "CN1CCCN=C1COC(=O)C(O)(c1ccccc1)C1CCCCC1 (stereo not drawn)", "discrete_label": "inactive"}
{"molecule": "c1ccc(C[n+]2cccc3ccccc32)cc1", "discrete_label": "inactive"}

Now consider the entry below.
What was the test verdict on C=CC(C)(CCC=C(C)C)OC(=O)CC(C)C (stereo not drawn) ?
inactive

* * *

- measurement_description: qHTS assay to identify aromatase inhibitors - cell viability counter screen (AID 743084);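 note: cells stimulated with testosterone during compound exposure; nearly all actives have a fitted effect of over 55% in size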
- settings: MCF-7 aro ERE viability, CellTiter-Fluor, 24 h; series mostly up to 70.3 µM
Results filed as inconclusive are left out. Activity calls are given as the source filed them. The call rests on the fitted dose curve; in most records, active means well fitted cell-killing curve with a large enough effect in the repeat runs; inconclusive means weak or mixed curves, or effect the other way; inactive means no such curve, though single readings can be large or run the other way.
reported_endpoint: outcome

Sample records with outcome:
{"compound": "O=C(CCc1ccc(O)cc1)c1c(O)cc(O)cc1O", "endpoint_value": "inactive"}
{"compound": "Cc1cccc(N(C)C(=S)Oc2ccc3c(c2)CCC3)c1", "endpoint_value": "inactive"}
{"compound": "CN1C(C(=O)Nc2ccccn2)=C(O)c2sccc2S1(=O)=O", "endpoint_value": "inactive"}
{"compound": "Cc1cccc(O)c1N", "endpoint_value": "inactive"}
{"compound": "Cc1cc(C)cc(N)c1", "endpoint_value": "inactive"}
{"compound": "Nc1ncnc2c1ncn2[C@H]1CC[C@@H](CO)O1", "endpoint_value": "inactive"}
{"compound": "O=C(/C=C/c1ccccc1)OCCc1ccccc1", "endpoint_value": "inactive"}
{"compound": "CC[N+](CC)(CCNC(=O)C(=O)NCC[N+](CC)(CC)Cc1ccccc1Cl)Cc1ccccc1Cl", "endpoint_value": "inactive"}
{"compound": "c1ccc2sc(SN(C3CCCCC3)C3CCCCC3)nc2c1", "endpoint_value": "inactive"}
{"compound": "CCOC(=O)[C@H](CCc1ccccc1)N[C@@H](C)C(=O)N(CC(=O)O)C1Cc2ccccc2C1", "endpoint_value": "inactive"}

Can you look up the measured outcome of "C[C@H]1c2cccc(O)c2C(O)=C2C(=O)[C@]3(O)C(O)=C(C(N)=O)C(=O)[C@@H](N(C)C)[C@@H]3[C@@H](O)[C@@H]21" for me?
inactive

* * *

- measurement_description: Human pregnane X receptor (PXR) small molecule agonists, qHTS cell viability counter screen (AID 1346977); note: nearly all actives have a fitted effect of over 50% in size
- settings: PXR-Luc HepG2 viability, CellTiter-Fluor, 24 h; series mostly up to 92.4 µM
- Excerpt: U.S. Tox21 Program National Center for Advancing Translational Sciences [NCATS] NIH Chemical Genomics Center [NCGC] U.S. Environmental Protection Agency [EPA] National Institutes of Environmental Health Sciences [NIEHS] National Toxicology Program [NTP] U.S. Food and Drug Administration [FDA] […]
Results filed as inconclusive are left out. Active and inactive are the calls of the source. Calls come from the whole dose curve; as a rule, active = well fitted cell-killing curve with a large enough effect in the repeat runs; inconclusive = weak or mixed curves, or effect the other way; inactive = flat fitted curve, though single readings scatter.
# output must be one of active, inactive

{"compound": "COc1cc(Nc2c(C#N)cnc3cc(OCCCN4CCN(C)CC4)c(OC)cc23)c(Cl)cc1Cl", "discrete_label": "active"}
{"compound": "COc1ccc(OC(=O)N(CC(=O)O)Cc2ccc(OCCc3nc(-c4ccccc4)oc3C)cc2)cc1", "discrete_label": "inactive"}
{"compound": "O=C(/C=C/c1ccc(O)c(O)c1)O[C@@H]1C[C@@](OC(=O)/C=C/c2ccc(O)c(O)c2)(C(=O)O)C[C@@H](O)[C@@H]1O", "discrete_label": "inactive"}
{"compound": "C=CC(C)(CCC=C(C)C)OC(=O)CC(C)C (stereo unspecified)", "discrete_label": "inactive"}
{"compound": "CCC(C)(C)OC", "discrete_label": "inactive"}

What was the test verdict on CC(O)c1ccccc1 (stereo unspecified) ?
inactive

What was the test verdict on "O=C(/C=C/c1ccccc1)OCCc1ccccc1" ?
inactive

What was the test verdict on "C=C1c2cccc(O)c2C(O)=C2C(=O)[C@]3(O)C(O)=C(C(N)=O)C(=O)[C@@H](N(C)C)[C@@H]3[C@@H](O)[C@H]12" ?
inactive

What was the test verdict on "C[C@@H](O)[C@H]1C(=O)N2C(C(=O)O)=C([C@H]3CCCO3)S[C@H]12" ?
inactive

What was the test verdict on Nc1cccc2c1CN(C1CCC(=O)NC1=O)C2=O (stereo unspecified) ?
inactive

What was the test verdict on "CC(=O)OCC(=O)NCCCOc1cccc(CN2CCCCC2)c1" ?
inactive

* * *

- measurement_description: qHTS assay for small molecules that induce genotoxicity in human embryonic kidney cells expressing luciferase-tagged ATAD5 - cell viability (AID 651634); note: nearly all actives have a fitted effect of over 25% in size
- settings: HEK293T ATAD5-luc cells viability, CellTiter-Fluor, 15.5 h; series mostly up to 83.3 µM
Results filed as inconclusive are left out. Activity calls are given as the source filed them. Calls follow the shape of the full dose curve.
# output must be one of label 1 (active), label 0 (inactive)

Please review the entries below; each comes with its answer.
{"compound": "N#CCc1ccc(Cl)cc1Cl", "discrete_label": "label 0"}
{"compound": "CN1CC(=O)N2[C@H](c3ccc4c(c3)OCO4)c3[nH]c4ccccc4c3C[C@@H]2C1=O", "discrete_label": "label 0"}
{"compound": "CCCCCCC(C)(C)C(=O)O", "discrete_label": "label 0"}

What was the test verdict on "CCOC(=O)[C@H](CCc1ccccc1)N[C@@H](C)C(=O)N(CC(=O)O)C1Cc2ccccc2C1" ?
label 0

* * *

- measurement_description: qHTS assay for small molecules that induce genotoxicity in human embryonic kidney cells expressing luciferase-tagged ATAD5 - cell viability (AID 651634); note: nearly all actives have a fitted effect of over 25% in size
- settings: HEK293T ATAD5-luc cells viability, CellTiter-Fluor, 15.5 h; series mostly up to 83.3 µM
Results filed as inconclusive are left out. Calls of active or inactive are those of the source. Calls come from the whole dose curve.
# output must be one of label 1 for active, label 0 for inactive

{"compound": "CN(C)CCC=C1c2ccccc2C=Cc2ccccc21", "discrete_label": "label 0"}
{"compound": "CCC(=O)OC", "discrete_label": "label 0"}
{"compound": "NNC(=O)CP(=O)(c1ccccc1)c1ccccc1", "discrete_label": "label 0"}
{"compound": "Brc1cc(Br)c(Oc2cc(Br)c(Br)cc2Br)cc1Br", "discrete_label": "label 0"}
{"compound": "Cc1ccccc1N=C(N)Nc1ccccc1C", "discrete_label": "label 0"}
{"compound": "O=c1cc(-c2ccccc2)oc2ccc3ccccc3c12", "discrete_label": "label 0"}
{"compound": "Oc1cc2c(cc1O)[C@H]1c3ccc(O)c(O)c3OC[C@@]1(O)C2", "discrete_label": "label 1"}
{"compound": "CN1CCCC(CC2c3ccccc3Sc3ccccc32)C1 (stereo not drawn)", "discrete_label": "label 0"}

What was the test verdict on "O=[N+]([O-])c1cc(C2CCCCC2)c(O)c([N+](=O)[O-])c1" ?
label 1
